The origin of these recorded values is the supplement of paper PMC10567573.

B1: BTBD1 (parent)
chain: YGSIHGPTDYQVNIQIIEYEKKQT

Variants of: B1
Experiment: protein stability index of a GFP-peptide fusion (GPS, HEK-293T) (PSI 1-6); higher = more stable;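 also: lentivirally expressed fusions sorted by FACS into six bins by GFP to DsRed ratio, PSI derived from sequencing read proportions per bin multiplied by bin number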
Conditions: c terminus: a fixed tail appended
Kind request: treat 2 as inclusive, so protein stability index at 2 or higher is Satisfied, anything lower is Not satisfied.

[[record]]
mutation_annotation = "N13T"
class_name = "Not satisfied"

[[record]]
mutation_annotation = "T8K"
class_name = "Satisfied"

[[record]]
mutation_annotation = "Y1T"
class_name = "Satisfied"

[[record]]
mutation_annotation = "Y19D"
class_name = "Satisfied"

[[record]]
mutation_annotation = "E20Q"
class_name = "Satisfied"

[[record]]
mutation_annotation = "K22R"
class_name = "Satisfied"


Challenge: Form field: protein stability index at least 2? Entry: `E20F`
Response given: Not satisfied

Challenge: Form field: protein stability index at least 2? Entry: `I17M`
Response given: Satisfied

Challenge: In plain terms: is recorded protein stability index at least 2 for `K22T` ?
Response given: Not satisfied

Challenge: Hello, I need to know if `Q23I` has measured protein stability index not below 2. Thanks!
Response given: Not satisfied

Challenge: Could you verify whether the entry `I17P` shows protein stability index of no less than 2?
Response given: Satisfied

Challenge: Identify whether the reported protein stability index of the following variant is 2 or greater: `V12S`
Response given: Satisfied
